# Tested on: Vero E6 cells
# Measurement Conditions: African green monkey
Reported Property: CC50 (µM)
Return type: number; implicit unit µM.

Problem: // output CC50; input CCN(CC)CCCC(C)Nc1ccnc2cc(Cl)ccc12 (stereo not shown) ; system Vero E6 cells
Result: 73.2

----------
# Method Notes: in vitro
# Measurement Conditions: African green monkey, CC50 (half-maximal cytotoxic concentration)
Reported Property: CC50 (µM)
Return type: number; implicit unit µM.

Problem: For the compound CCN(CC)CCCC(C)Nc1ccnc2cc(Cl)ccc12 (stereo not shown) , give its reported CC50.
Result: 73.2

Source: paper PMC8778678
